Here the recorded refractive index is given for each entry.
assay: refractive index (Na D-line) (dimensionless); conditions: 293.15 K; 93 kPa; Liquid; Standard Abbe refractometry
Just the number, please.

Completed entries (count: 3):
>>> df
                                 compound  quantity_measured  observed
0  CC(=O)OC(C)C [1-methylethyl ethanoate]   refractive index    1.3774
1               CCOC(C)=O [ethyl acetate]   refractive index    1.3724
2           CCCCOC(C)=O [butyl ethanoate]   refractive index    1.3943

Problem: Give reported refractive index value for COC(=O)OC [dimethyl carbonate]
Result: 1.3688

Problem: Report refractive index for CC(=O)OCCC(C)C [3-methylbutyl ethanoate]
Result: 1.4007

Problem: Give refractive index for CCCOC(C)=O [propyl ethanoate]
Result: 1.3843

Problem: Please give the documented refractive index of COC(C)=O [methyl ethanoate]
Result: 1.3615
